# studyTarget: Voltage-gated inwardly rectifying potassium channel KCNH2 (Homo sapiens, UniProt Q12809)
# Sequence (Q12809 whole entry): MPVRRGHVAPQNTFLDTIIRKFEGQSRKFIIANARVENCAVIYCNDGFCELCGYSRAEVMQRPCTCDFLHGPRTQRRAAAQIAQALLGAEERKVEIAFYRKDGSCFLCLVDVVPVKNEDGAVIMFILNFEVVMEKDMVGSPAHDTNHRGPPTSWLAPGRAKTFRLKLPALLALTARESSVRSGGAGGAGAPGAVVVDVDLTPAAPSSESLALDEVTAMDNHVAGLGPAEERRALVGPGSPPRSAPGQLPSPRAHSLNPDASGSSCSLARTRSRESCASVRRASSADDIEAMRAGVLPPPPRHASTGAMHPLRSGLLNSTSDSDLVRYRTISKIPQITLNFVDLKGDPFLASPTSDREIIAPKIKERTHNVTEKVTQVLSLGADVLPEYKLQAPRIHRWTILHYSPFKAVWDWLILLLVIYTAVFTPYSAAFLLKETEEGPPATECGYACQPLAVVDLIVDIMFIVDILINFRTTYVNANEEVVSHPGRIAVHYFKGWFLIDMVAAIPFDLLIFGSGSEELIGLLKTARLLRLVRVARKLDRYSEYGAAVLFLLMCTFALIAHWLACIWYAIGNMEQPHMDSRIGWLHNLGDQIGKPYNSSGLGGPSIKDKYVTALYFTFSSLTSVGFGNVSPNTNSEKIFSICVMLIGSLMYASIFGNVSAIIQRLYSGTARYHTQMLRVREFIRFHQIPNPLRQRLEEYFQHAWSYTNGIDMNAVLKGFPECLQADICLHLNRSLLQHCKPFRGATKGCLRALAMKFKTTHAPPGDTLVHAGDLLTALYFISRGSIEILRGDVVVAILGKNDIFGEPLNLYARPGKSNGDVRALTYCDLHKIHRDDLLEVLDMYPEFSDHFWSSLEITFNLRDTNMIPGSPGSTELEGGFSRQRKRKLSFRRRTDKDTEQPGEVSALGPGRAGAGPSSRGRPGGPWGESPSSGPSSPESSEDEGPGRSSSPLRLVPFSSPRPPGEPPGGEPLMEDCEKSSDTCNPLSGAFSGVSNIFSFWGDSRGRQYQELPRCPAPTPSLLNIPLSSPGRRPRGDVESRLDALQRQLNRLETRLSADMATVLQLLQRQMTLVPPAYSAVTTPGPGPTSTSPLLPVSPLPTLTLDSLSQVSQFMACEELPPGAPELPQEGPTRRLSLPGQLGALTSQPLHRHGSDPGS
propertyLabel: IC50 (µM)
Just the number please, in µM, no unit attached.

input: Report measured IC50 on Voltage-gated inwardly rectifying potassium channel KCNH2 (Homo sapiens, UniProt Q12809); entry: COc1ccc(C(=O)C2CCN(C(=O)c3ccc(C(=O)NC4CCN(Cc5ccc(C#N)cc5)CC4)cn3)CC2)cc1
output: 4.7

---

# assayNotes: Drug concentration in C57BL/6J mouse plasma at 10 mg/kg, po measured at 30 mins
# Assay type: ADME, organism-based
propertyLabel: concentration at 0.5 h (ng/mL)
Unit ng/mL implied. Number only.

input: Answer with reported concentration at 0.5 h of COc1ccc(C(=O)C2CCN(C(=O)c3ccc(C(=O)N[C@H]4CCN(Cc5ccc(C#N)cc5)C[C@@H]4F)cn3)CC2)cc1 (relative stereo)
output: 638

src = ChEMBL document CHEMBL5375990
